Assay: soluble on expression in E. coli; label from the status in PepcDB or PDB records
ENDPOINT: soluble on expression in E. coli

PIFTLNTNIKATDVPSDFLSSTSALVGNILSKPGSYVAVHINTDQQLSFGGSTNPAAFGTLMSIGGIEPSRNRDHSAKLFDHLNTKLGIPKNRMYIHFVNLNGDDVGWNGTTF; soluble
MAHHHHHHMTRDDGTQVAQLLSEGKYNLPMFLRYLKASSMEGDQPDKSLLLGILLQSLARFQTSDFTACMCLVPSHVQDSPSVEKELNYIYGLENLLSCGLFARFWTQWSSVKEHLPESFHFEARVRTSILETICITMESIPTEKLATYLAVSPDQVQKVVHNAMKDSEDRDMKVMAYDSGSVVFHRNRFNYPQAGAAQDAIRFTDVSSVIHNDVPRRGAAVAADETRDVRARTWARMADE; soluble
EVMLVESGGGLVKPGGSLKLSCAASGFTFSSYTMSWVRQTPEKRLEWVATISSGGGNTYYPDSVKGRFTISRDIAKNTLYLQMSSLRSEDTALYYCTRLGDYGYAYTMDYWGQGTSVTVSSAKTTPPSVYPLAPGGGGGGGAMVTLGCLVKGYFPEPVTVTWNSGSLSSGVHTFPAVLQSDLYTLSSSVTVPSSPWPSETVTCNVAHPASSTKVDKKIVPRDC; soluble
